System: U87MG cells
methodDescription: Cellular assay, inhibition of 2-HG production in U87MG cells
Type: cell-based
conditionSummary: Homo sapiens, U-87 MG, 48 h
quantityName: IC50

[[record]]
chemicalstructure = "N#Cc1ccnc(N2C(=O)OCC[C@H]2C(=O)N(c2cncc(F)c2)[C@H](C(=O)NC2CCC(F)(F)CC2)c2ccccc2Cl)c1"
measuredvalue = "< 100 nM"

[[record]]
chemicalstructure = "COc1cccnc1N1C(=O)CC[C@H]1C(=O)N(c1cccc(F)c1)[C@H](C(=O)NC1CC(F)(F)C1)c1ccccc1Cl"
measuredvalue = "1000 to 2000 nM"

[[record]]
chemicalstructure = "N#Cc1ccnc(N2C(=O)CNC[C@H]2C(=O)N(c2cc(F)cc(F)c2)[C@H](C(=O)NC2CC(F)(F)C2)c2ccccc2Cl)n1"
measuredvalue = "< 100 nM"

[[record]]
chemicalstructure = "N#Cc1ccnc(N2C(=O)CC[C@H]2C(=O)N(c2cccc(CO)c2)[C@H](C(=O)NC2CC(F)(F)C2)c2ccccc2Cl)c1"
measuredvalue = "< 100 nM"

[[record]]
chemicalstructure = "N#Cc1ccnc(N2C(=O)CC[C@H]2C(=O)N(c2cccc(C3CC3)c2)[C@H](C(=O)NC2CC(F)(F)C2)c2ccccc2Cl)c1"
measuredvalue = "< 100 nM"

[[record]]
chemicalstructure = "O=C(NC1CC(F)(F)C1)[C@H](c1ccccc1Cl)N(C(=O)[C@@H]1CCC(=O)N1c1cc(C(F)(F)F)ccn1)c1cccc(F)c1"
measuredvalue = "100 to 500 nM"

[[record]]
chemicalstructure = "N#Cc1ccnc(N2C(=O)CC[C@H]2C(=O)N(c2cc(F)cc(F)c2)[C@H](C(=O)NC2CC(F)(F)C2)c2ccccc2Cl)c1"
measuredvalue = "< 100 nM"

[[record]]
chemicalstructure = "O=C(NC1CC(F)(F)C1)[C@H](c1ccccc1Cl)N(C(=O)[C@@H]1COC(=O)N1c1ncccn1)c1cccc(F)c1"
measuredvalue = "< 100 nM"

[[record]]
chemicalstructure = "N#Cc1ccnc(N2C(=O)[C@@H](O)C[C@H]2C(=O)N(c2cccc(F)c2)[C@H](C(=O)NC2CCC(F)(F)CC2)c2ccccc2Cl)n1"
measuredvalue = "< 100 nM"

[[record]]
chemicalstructure = "CNS(=O)(=O)c1cccc(N(C(=O)[C@@H]2CCC(=O)N2c2cc(C#N)ccn2)[C@H](C(=O)NC2CC(F)(F)C2)c2ccccc2Cl)c1"
measuredvalue = "< 100 nM"

[[record]]
chemicalstructure = "N#Cc1cc(C#N)cc(N(C(=O)[C@@H]2CCC(=O)N2c2cc(C#N)ccn2)[C@H](C(=O)NC2CC(F)(F)C2)c2ccccc2Cl)c1"
measuredvalue = "< 100 nM"

[[record]]
chemicalstructure = "N#Cc1ccnc(N2C(=O)CC[C@H]2C(=O)N(c2cccc(F)c2)[C@H](C(=O)NC2CC(F)(F)C2)c2ccccc2F)c1"
measuredvalue = "< 100 nM"


----------
The reader will find reported pIC50 values listed item by item below.
System: U87MG cells
methodDescription: Cellular assay, inhibition of 2-HG production in U87MG cells
Format: cell-based
conditionSummary: Homo sapiens, U-87 MG, 48 h
pIC50: −log10 of the molar value.
quantityName: pIC50

[[record]]
molecule = "COc1cccc(N(C(=O)[C@@H]2CCC(=O)N2c2cc(C#N)ccn2)[C@H](C(=O)NC2CC(F)(F)C2)c2ccccc2Cl)c1"
systemtested = "U87MG cells"
measuredvalue = "> 7.00"

[[record]]
molecule = "N#Cc1ccnc(N2C(=O)CC[C@H]2C(=O)N(c2cccc(C3CC3)c2)[C@H](C(=O)NC2CC(F)(F)C2)c2ccccc2Cl)n1"
systemtested = "U87MG cells"
measuredvalue = "> 7.00"

[[record]]
molecule = "N#Cc1ccnc(N2C(=O)CC[C@H]2C(=O)N(c2cccc(OC(F)F)c2)[C@H](C(=O)NC2CC(F)(F)C2)c2ccccc2Cl)n1"
systemtested = "U87MG cells"
measuredvalue = "> 7.00"

[[record]]
molecule = "N#Cc1ccnc(N2C(=O)[C@H](F)C[C@H]2C(=O)N(c2cccc(F)c2)[C@H](C(=O)NC2CCC(F)(F)CC2)c2ccccc2Cl)c1"
systemtested = "U87MG cells"
measuredvalue = "> 7.00"

[[record]]
molecule = "N#Cc1ccnc(N2C(=O)CC[C@H]2C(=O)N(c2cncc(F)c2)[C@H](C(=O)NC2CC(F)(F)C2)c2ccccc2)c1"
systemtested = "U87MG cells"
measuredvalue = "> 7.00"

[[record]]
molecule = "N#Cc1ccnc(N2C(=O)CC[C@H]2C(=O)N(c2cc(F)cc(F)c2)[C@H](C(=O)NC2CCC(F)(F)CC2)c2ccccc2Cl)c1"
systemtested = "U87MG cells"
measuredvalue = "> 7.00"

[[record]]
molecule = "CN1CC(=O)N(c2cc(C#N)ccn2)[C@H](C(=O)N(c2cc(F)cc(F)c2)[C@H](C(=O)NC2CC(F)(F)C2)c2ccccc2Cl)C1"
systemtested = "U87MG cells"
measuredvalue = "> 7.00"

[[record]]
molecule = "CC(C)(C)OC(=O)N1CC(=O)N(c2nccc(C#N)n2)[C@H](C(=O)N(c2cc(F)cc(F)c2)[C@H](C(=O)NC2CC(F)(F)C2)c2ccccc2Cl)C1"
systemtested = "U87MG cells"
measuredvalue = "> 7.00"

[[record]]
molecule = "N#Cc1ccnc(N2C(=O)OCC[C@H]2C(=O)N(c2cc(F)cc(F)c2)[C@H](C(=O)NC2CC(F)(F)C2)c2ccccc2Cl)n1"
systemtested = "U87MG cells"
measuredvalue = "> 7.00"

[[record]]
molecule = "O=C(NC1CC(F)(F)C1)[C@H](c1ccccc1Cl)N(C(=O)[C@@H]1CCC(=O)N1c1ccc(Cl)cn1)c1cccc(F)c1"
systemtested = "U87MG cells"
measuredvalue = "6.30 to 7.00"

[[record]]
molecule = "N#Cc1cc(C#N)cc(N(C(=O)[C@@H]2CCC(=O)N2c2cc(C#N)ccn2)C(C(=O)NC2CC(F)(F)C2)c2ccccc2Cl)c1 (stereo partly drawn)"
systemtested = "U87MG cells"
measuredvalue = "> 7.00"

[[record]]
molecule = "Cc1cccnc1N1C(=O)CC[C@H]1C(=O)N(c1cccc(F)c1)[C@H](C(=O)NC1CC(F)(F)C1)c1ccccc1Cl"
systemtested = "U87MG cells"
measuredvalue = "6.30 to 7.00"


From: patent US10640534B2
